The values you see were collected from patent US20110142868A1.

# Target of assay: recombinant human PAD4 (human, UniProt Q9UM07 1-663)
# Sequence (Q9UM07 whole entry): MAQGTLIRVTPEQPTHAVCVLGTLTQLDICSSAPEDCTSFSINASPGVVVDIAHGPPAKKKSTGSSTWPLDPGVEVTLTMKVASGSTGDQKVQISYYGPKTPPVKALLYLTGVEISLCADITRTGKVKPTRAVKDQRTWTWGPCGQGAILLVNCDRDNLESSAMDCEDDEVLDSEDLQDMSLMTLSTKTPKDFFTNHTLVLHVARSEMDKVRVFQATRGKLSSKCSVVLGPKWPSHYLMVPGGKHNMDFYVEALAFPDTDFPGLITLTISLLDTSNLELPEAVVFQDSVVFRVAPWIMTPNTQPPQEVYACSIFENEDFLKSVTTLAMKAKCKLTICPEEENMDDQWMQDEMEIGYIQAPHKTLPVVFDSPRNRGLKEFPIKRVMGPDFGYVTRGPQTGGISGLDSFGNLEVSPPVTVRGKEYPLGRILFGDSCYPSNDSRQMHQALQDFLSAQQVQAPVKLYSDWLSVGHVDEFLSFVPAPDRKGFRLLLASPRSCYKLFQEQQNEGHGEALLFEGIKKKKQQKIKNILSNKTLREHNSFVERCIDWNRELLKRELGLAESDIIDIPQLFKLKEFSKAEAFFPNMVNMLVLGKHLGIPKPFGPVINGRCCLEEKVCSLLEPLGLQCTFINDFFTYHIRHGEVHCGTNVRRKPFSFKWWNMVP
# Test name: cell-based or functional assay
Square brackets hold non-standard residues; d marks the D form. * marks the point of attachment. Orn(fluoroacetimidoyl) = N=C(CF)NCCC[C@H](N)C(=O)O; 2Naphthylsulfonyl = O=S(=O)(c1ccc2ccccc2c1)*; AEEA = NCCOCCOCC(=O)O
Readout kind: Inhibition of PAD4: value at 20 µM inhibitor (0 µM: 71) (%)
Numbers only, in %.

Give Inhibition of PAD4: value at 20 µM inhibitor (0 µM: 71) for each of the items listed below.
1. Ac-KFD[Orn(fluoroacetimidoyl)]DFI-NH2 (SMILES CC[C@H](C)[C@H](NC(=O)[C@H](Cc1ccccc1)NC(=O)[C@H](CC(=O)O)NC(=O)[C@H](CCCNC(=N)CF)NC(=O)[C@H](CC(=O)O)NC(=O)[C@H](Cc1ccccc1)NC(=O)[C@H](CCCCN)NC(C)=O)C(N)=O) [0743-58FA]
2. 2Naphthylsulfonyl-KFD[Orn(fluoroacetimidoyl)]DFI[AEEA]-NH2 (SMILES CC[C@H](C)[C@H](NC(=O)[C@H](Cc1ccccc1)NC(=O)[C@H](CC(=O)O)NC(=O)[C@H](CCCNC(=N)CF)NC(=O)[C@H](CC(=O)O)NC(=O)[C@H](Cc1ccccc1)NC(=O)[C@H](CCCCN)NS(=O)(=O)c1ccc2ccccc2c1)C(=O)NCCOCCOCC(N)=O) [0837-27FA]
3. Ac-KFD[Orn(fluoroacetimidoyl)]DFI[AEEA]-NH2 (SMILES CC[C@H](C)[C@H](NC(=O)[C@H](Cc1ccccc1)NC(=O)[C@H](CC(=O)O)NC(=O)[C@H](CCCNC(=N)CF)NC(=O)[C@H](CC(=O)O)NC(=O)[C@H](Cc1ccccc1)NC(=O)[C@H](CCCCN)NC(C)=O)C(=O)NCCOCCOCC(N)=O) [0837-13FA]
4. 2Naphthylsulfonyl-KFD[Orn(fluoroacetimidoyl)]DFI-NH2 [0837-29FA]

Outgoing:
1: 36; 2: 20; 3: 33; 4: 16
